// data source = PubChem BioAssay (NCI)

test details: NCI Yeast Anticancer Drug Screen. Data for the cln2 rad14 strain (AID 165)
condition details: S. cerevisiae cln2 rad14 strain, at 50.0 µM (retest, dose inferred, filed as 5.0)
The panel holds about 79,000 compounds, 15% with a hit somewhere; the sample as a whole holds those more often. The source made the active and inactive calls. Rule as the data show it: active = growth inhibition above about 70%; inactive = the rest.
Classes used: active, inactive

>>> label_value("Cc1cc(OCCl)ccc1[N+](=O)[O-]")
"inactive"
>>> label_value("Cc1nc2[nH]cc(C)c2c(=O)[nH]1")
"inactive"
>>> label_value("CCOC(=O)CN1CCC(C(=O)CC2(O)C3(Cl)C4(Cl)C5(Cl)C(Cl)(Cl)C6(Cl)C4(Cl)C2(Cl)C6(Cl)C53Cl)CC1 (configuration not stated)")
"active"
>>> label_value("CCOC(=O)/C(=C\\c1ccc([N+](=O)[O-])cc1)C(C)=O")
"active"
>>> label_value("CCCCCCCCCCCCNC(=O)c1ccc[n+](Cc2ccc(Cl)c(Cl)c2)c1")
"active"
>>> label_value("CCCCCCCCN1C(=O)c2ccccc2S1(=O)=O")
"active"
>>> label_value("CCC(C)OC(=S)S (configuration not stated)")
"inactive"
>>> label_value("Oc1ccc(O)c(C2CCCCC2)c1")
"active"
>>> label_value("CCOC(=O)/C=C(\\CC(=O)OCC)C(=O)OCC")
"inactive"
>>> label_value("CCCCc1c2c(nc3c1CCc1cc4cc5c(nc4nc1-3)-c1nc3c(c(CCCC)c1CC5)CCCC3=O)C(=O)CCC2")
"active"
>>> label_value("O=C1O/C(=C(\\Cc2ccccc2)c2ccccc2)N(c2ccccc2)C1=O")
"inactive"
>>> label_value("CCN(CC)c1ccc(N=Nc2ccc(-c3nc4ccc[n+](C)c4s3)cc2)cc1")
"active"
>>> label_value("OC(Cn1cncn1)(Cn1cncn1)c1ccc(Cl)cc1Cl")
"active"
>>> label_value("Cc1cc2c(C(C)C)c(O)c(O)c3coc(/c1=c1/c(C)cc4c(C(C)C)c(=O)c(=O)c5coc1c45)c32")
"active"
>>> label_value("Nc1c(/C=C/c2cc3ccc(C4=NCCN4)cc3[nH]2)[nH]c2cc(C3=NCCN3)ccc12")
"active"
>>> label_value("Fc1ccc(NC2=NCCN=C(Nc3ccc(F)cc3)SS2)cc1")
"active"
>>> label_value("Oc1cccc2ccncc12")
"inactive"
>>> label_value("COc1cccc2c1C(=O)c1c(O)c3c(c(O)c1C2=O)CC(O)(C(C)=O)CC3OC1CC(N/C(C)=C/C(C)=O)C(O)C(C)O1 (configuration not stated)")
"active"
>>> label_value("CCc1scc(C)[n+]1CC(=O)c1cccc([N+](=O)[O-])c1")
"inactive"
>>> label_value("Cc1c[nH]c(C(=O)O)c1-c1ccc2c(-c3ccccc3)nc3ccccc3n12")
"active"
>>> label_value("Cc1ccc(Nc2nc(C)c(C(/C=C/c3ccc4c(c3)OCO4)=N/Nc3ccc([N+](=O)[O-])cc3[N+](=O)[O-])s2)c([N+](=O)[O-])c1")
"inactive"
>>> label_value("CC(=O)OC1CCCc2c1nc1ccccc1[n+]2[O-] (configuration not stated)")
"inactive"
